Each entry below lists one item and its recorded self-aminoacylation value.
Tested on: biotinyl-Met-oxazolone
Assay: self-aminoacylation, catalytic enhancement (BMO) (fold over background); higher = more active; k-Seq, kA / k0A0; sequences stand for … in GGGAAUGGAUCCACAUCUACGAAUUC…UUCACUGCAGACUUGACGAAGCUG
Variants at the floor of the assay were thinned out.
// return just the number, without any unit appended

{"columns": ["residue codes", "self-aminoacylation"],
 "data": [
  ["AUCCAUCUAGGUCAUCGGGUG [Fam2.2 aminoacylation ribozyme variant]", 7.36],
  ["CCACACUUCAAGCAAUCGGGG [Fam1B.1 aminoacylation ribozyme variant]", 1.21],
  ["CCACACUCCAAGCAAUCGGUC [Fam1B.1 aminoacylation ribozyme variant]", 0.789]
]}

Note: attention shifts to another entry.
// field: self-aminoacylation; key: AACUUUGCUAAUAGUAGCAAG [Fam3.1 aminoacylation ribozyme variant] ; value = 2.2
